Quick reference: GLP-1R CAMP Max (%) of the listed items.
TGT: GLP-1R of the cAMP assay of Tables 10, 14 and 15 (human, UniProt P43220 24-463, limits assumed)
ASSAY_REMARKS: cell-based or functional assay
Non-standard residues stand in square brackets, D forms with d. Groups on a side chain read outwards from the residue. No end group written: not given here. AA10 = not defined here; AA1 = not defined here; AA2 = not defined here; AA6 = not defined here; AA9 = not defined here
EXPERIMENTAL_READOUT: GLP-1R CAMP Max (%)

>>> reported_value("[AA10][AA9]GT[AA6]TSD[AA2]([Leu-Gln-Leu-Leu])[AA1]-OH (reading uncertain; also: printed as LLQ-M6009 (AA10-AA9-AA8-AA7-AA6-AA5-AA4-AA3-(LLQ-L)AA2-AA1-OH)) [LLQ-M6009 (AA10-AA9-AA8-AA7-AA6-AA5-AA4-AA3-(LLQ-L)AA2-AA1-OH)]")
104
>>> reported_value("[AA10][AA9]GT[AA6]TSDX-OH (not fully specified (residue 9); printed as AA10-AA9-AA8-AA7-AA6-AA5-AA4-AA3-AA2-OH) [AA10-AA9-AA8-AA7-AA6-AA5-AA4-AA3-AA2-OH]")
97.9
